tested on: DNA; assay: Stabilization of 5'-FAM-TAT-ATA-TAG-ATA-TTT-TTT-TAT-CTA-TAT-ATA-3'-TAMRA DNA (unknown origin) assessed as reduction in change in melting temperature at 1:1 to 5:1 ligand to DNA ratio measured after 3 hrs by FRET-based assay relative to control; type: ADME, nucleic-acid assay
The entries below come with measured fold change (FC) values attached.
quantity: fold change (FC)

chemicalSmiles: COc1cc2c(cc1OCCCC(=O)Nc1cc(C(=O)Nc3ccc4oc(C(=O)N(C)C)cc4c3)n(C)c1)N=C[C@@H]1CCCN1C2=O
result: 3 to 4

chemicalSmiles: COc1cc2c(cc1OCCCC(=O)Nc1cc(C(=O)Nc3ccc4sc(C(=O)N5CCCCC5)cc4c3)n(C)c1)N=C[C@@H]1CCCN1C2=O
result: 3 to 4

chemicalSmiles: COc1cc2c(cc1OCCCC(=O)Nc1cc(C(=O)Nc3ccc(-c4cc(C(=O)N5CCSCC5)n(C)c4)cc3)n(C)c1)N=C[C@@H]1CCCN1C2=O
result: 3 to 4

chemicalSmiles: COc1cc2c(cc1OCCCC(=O)Nc1cc(C(=O)Nc3ccc4oc(C(=O)N5CCOCC5)cc4c3)n(C)c1)N=C[C@@H]1CCCN1C2=O
result: 3 to 4

chemicalSmiles: CCN(CC)C(=O)c1cc(-c2ccc(NC(=O)c3cc(NC(=O)CCCOc4cc5c(cc4OC)C(=O)N4CCC[C@H]4C=N5)cn3C)cc2)cn1C
result: 3 to 4

chemicalSmiles: CCN(CC)C(=O)c1cc2cc(NC(=O)c3cc(NC(=O)CCCOc4cc5c(cc4OC)C(=O)N4CCC[C@H]4C=N5)cn3C)ccc2o1
result: 3 to 4

###

The entries below come with measured fold change (FC) values attached.
Target: Protein RecA (Escherichia coli K-12) (UniProt P0A7G6)
Sequence (whole entry): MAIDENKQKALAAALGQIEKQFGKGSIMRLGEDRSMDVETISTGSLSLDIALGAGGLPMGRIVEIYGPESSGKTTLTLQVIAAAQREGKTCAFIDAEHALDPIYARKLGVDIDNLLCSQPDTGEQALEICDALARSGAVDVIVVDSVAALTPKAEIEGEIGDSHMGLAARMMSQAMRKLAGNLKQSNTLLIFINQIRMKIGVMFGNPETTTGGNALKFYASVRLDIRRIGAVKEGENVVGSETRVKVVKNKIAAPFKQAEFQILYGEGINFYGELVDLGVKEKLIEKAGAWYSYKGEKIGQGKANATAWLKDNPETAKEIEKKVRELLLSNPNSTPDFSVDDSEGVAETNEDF
Experiment: Induction of Escherichia coli K12 MG1655 recA promotor measured at 30 mins interval for 20 hrs by fluorescence assay relative to control
Conditions: Escherichia coli str. K-12 substr. MG1655
quantity: fold change (FC)

compound: COc1c(N2C[C@@H]3CCCN[C@@H]3C2)c(F)cc2c(=O)c(C(=O)O)cn(C3CC3)c12
result: 20 to 35

compound: COc1cc2c(cc1OCCCC(=O)Nc1cc(C(=O)Nc3ccc4oc(C(=O)N5CCSCC5)cc4c3)n(C)c1)N=C[C@@H]1CCCN1C2=O
result: 8 to 10

compound: COc1cc2c(cc1OCCCC(=O)Nc1cc(C(=O)Nc3ccc4sc(C(=O)N(C)C)cc4c3)n(C)c1)N=C[C@@H]1CCCN1C2=O
result: 8 to 10

compound: CCn1cc(C(=O)O)c(=O)c2cc(F)c(N3CCNCC3)cc21
result: 20 to 35

compound: CO[C@@H]1[C@@H](OC(N)=O)[C@@H](O)[C@H](Oc2ccc3c(O)c(NC(=O)c4ccc(O)c(CC=C(C)C)c4)c(=O)oc3c2C)OC1(C)C
result: 20 to 35

compound: C[C@H]1COc2c(N3CCN(C)CC3)c(F)cc3c(=O)c(C(=O)O)cn1c23
result: 20 to 35

compound: O=C(O)c1cn(C2CC2)c2cc(N3CCNCC3)c(F)cc2c1=O [CIPROFLOXACIN]
result: 20 to 35

###

The entries below come with measured fold change (FC) values attached.
biological target: UniProt P05824; test: Induction of Escherichia coli K12 MG1655 recN promotor measured at 30 mins interval for 20 hrs by fluorescence assay relative to control; details: Escherichia coli str. K-12 substr. MG1655
Sequence (P05824 whole entry): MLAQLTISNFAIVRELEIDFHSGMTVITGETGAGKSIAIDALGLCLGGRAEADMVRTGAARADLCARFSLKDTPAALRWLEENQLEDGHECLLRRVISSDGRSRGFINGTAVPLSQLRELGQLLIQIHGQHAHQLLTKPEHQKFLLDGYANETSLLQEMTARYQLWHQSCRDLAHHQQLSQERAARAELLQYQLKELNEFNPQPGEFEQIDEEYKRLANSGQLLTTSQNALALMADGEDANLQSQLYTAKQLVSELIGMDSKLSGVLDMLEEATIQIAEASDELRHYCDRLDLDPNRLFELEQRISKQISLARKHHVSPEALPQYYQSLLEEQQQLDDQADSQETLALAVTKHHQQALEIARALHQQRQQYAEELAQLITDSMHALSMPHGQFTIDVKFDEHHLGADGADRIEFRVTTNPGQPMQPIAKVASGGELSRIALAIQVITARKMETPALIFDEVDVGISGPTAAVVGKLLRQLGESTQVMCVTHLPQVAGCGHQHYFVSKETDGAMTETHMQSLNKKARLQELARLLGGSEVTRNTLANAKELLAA

chemicalSmiles: C[C@H]1COc2c(N3CCN(C)CC3)c(F)cc3c(=O)c(C(=O)O)cn1c23
testedSystem: UniProt P05824
fold change (FC): 14 to 32

chemicalSmiles: COc1cc2c(cc1OCCCC(=O)Nc1cc(C(=O)Nc3ccc4oc(C(=O)N5CCSCC5)cc4c3)n(C)c1)N=C[C@@H]1CCCN1C2=O
testedSystem: UniProt P05824
fold change (FC): 6 to 11

chemicalSmiles: CCn1cc(C(=O)O)c(=O)c2cc(F)c(N3CCNCC3)cc21
testedSystem: UniProt P05824
fold change (FC): 14 to 32

chemicalSmiles: CO[C@@H]1[C@@H](OC(N)=O)[C@@H](O)[C@H](Oc2ccc3c(O)c(NC(=O)c4ccc(O)c(CC=C(C)C)c4)c(=O)oc3c2C)OC1(C)C
testedSystem: UniProt P05824
fold change (FC): 14 to 32

chemicalSmiles: O=C(O)c1cn(C2CC2)c2cc(N3CCNCC3)c(F)cc2c1=O
testedSystem: UniProt P05824
fold change (FC): 14 to 32

chemicalSmiles: COc1cc2c(cc1OCCCC(=O)Nc1cc(C(=O)Nc3ccc4sc(C(=O)N(C)C)cc4c3)n(C)c1)N=C[C@@H]1CCCN1C2=O
testedSystem: UniProt P05824
fold change (FC): 6 to 11

chemicalSmiles: COc1c(N2C[C@@H]3CCCN[C@@H]3C2)c(F)cc2c(=O)c(C(=O)O)cn(C3CC3)c12
testedSystem: UniProt P05824
fold change (FC): 14 to 32

###

tested on: DNA; test: Stabilization of 5'-FAM-TAT-AGA-TAT-AGA-TAT-TTT-ATA-TCT-ATA-TCT-ATA-3'-TAMRA DNA (unknown origin) assessed as reduction in change in melting temperature at 1:1 to 5:1 ligand to DNA ratio measured after 3 hrs by FRET-based assay relative to control; type: ADME, nucleic-acid assay
The entries below come with measured fold change (FC) values attached.
quantity: fold change (FC)

chemicalSmiles: CCN(CC)C(=O)c1cc(-c2ccc(NC(=O)c3cc(NC(=O)CCCOc4cc5c(cc4OC)C(=O)N4CCC[C@H]4C=N5)cn3C)cc2)cn1C
quantity: fold change (FC)
result: 3 to 4
--
chemicalSmiles: COc1cc2c(cc1OCCCC(=O)Nc1cc(C(=O)Nc3ccc(-c4cc(C(=O)N(C)C)n(C)c4)cc3)n(C)c1)N=C[C@@H]1CCCN1C2=O
quantity: fold change (FC)
result: 3 to 4
--
chemicalSmiles: COc1cc2c(cc1OCCCC(=O)Nc1cc(C(=O)Nc3ccc4sc(C(=O)N5CCSCC5)cc4c3)n(C)c1)N=C[C@@H]1CCCN1C2=O
quantity: fold change (FC)
result: 3 to 4

###

The entries below come with measured fold change (FC) values attached.
target: LexA repressor (Escherichia coli) (UniProt P0A7C2); experiment: Induction of Escherichia coli K12 MG1655 lexA promotor measured at 30 mins interval for 20 hrs by fluorescence assay relative to control; conditions: Escherichia coli str. K-12 substr. MG1655
Sequence (P0A7C2 whole entry): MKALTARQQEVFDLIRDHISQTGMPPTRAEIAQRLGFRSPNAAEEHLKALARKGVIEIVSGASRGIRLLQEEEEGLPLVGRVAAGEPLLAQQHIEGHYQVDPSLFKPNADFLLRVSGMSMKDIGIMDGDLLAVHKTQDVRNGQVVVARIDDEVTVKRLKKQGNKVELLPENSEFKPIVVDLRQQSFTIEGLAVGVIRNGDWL

chemicalSmiles: C[C@H]1COc2c(N3CCN(C)CC3)c(F)cc3c(=O)c(C(=O)O)cn1c23
testedSystem: LexA repressor (Escherichia coli) (UniProt P0A7C2)
fold change (FC): 5 to 13

chemicalSmiles: COc1c(N2C[C@@H]3CCCN[C@@H]3C2)c(F)cc2c(=O)c(C(=O)O)cn(C3CC3)c12
testedSystem: LexA repressor (Escherichia coli) (UniProt P0A7C2)
fold change (FC): 5 to 13

chemicalSmiles: CCn1cc(C(=O)O)c(=O)c2cc(F)c(N3CCNCC3)cc21
testedSystem: LexA repressor (Escherichia coli) (UniProt P0A7C2)
fold change (FC): 5 to 13

chemicalSmiles: COc1cc2c(cc1OCCCC(=O)Nc1cc(C(=O)Nc3ccc4oc(C(=O)N5CCSCC5)cc4c3)n(C)c1)N=C[C@@H]1CCCN1C2=O
testedSystem: LexA repressor (Escherichia coli) (UniProt P0A7C2)
fold change (FC): 5 to 9

chemicalSmiles: O=C(O)c1cn(C2CC2)c2cc(N3CCNCC3)c(F)cc2c1=O
testedSystem: LexA repressor (Escherichia coli) (UniProt P0A7C2)
fold change (FC): 5 to 13

chemicalSmiles: CO[C@@H]1[C@@H](OC(N)=O)[C@@H](O)[C@H](Oc2ccc3c(O)c(NC(=O)c4ccc(O)c(CC=C(C)C)c4)c(=O)oc3c2C)OC1(C)C
testedSystem: LexA repressor (Escherichia coli) (UniProt P0A7C2)
fold change (FC): 5 to 13

chemicalSmiles: COc1cc2c(cc1OCCCC(=O)Nc1cc(C(=O)Nc3ccc4sc(C(=O)N(C)C)cc4c3)n(C)c1)N=C[C@@H]1CCCN1C2=O
testedSystem: LexA repressor (Escherichia coli) (UniProt P0A7C2)
fold change (FC): 5 to 9

From: ChEMBL document CHEMBL4610120
